biological target: VEAT (vesicular excitatory amino acid transporter) (Mus musculus); construct: gene Slc17a5; recombinant, expressed in insect cells or E. coli, Ni-NTA purified, reconstituted in asolectin liposomes; assay: inhibition of valinomycin-evoked radiolabelled substrate uptake into proteoliposomes; type: biochemical; settings: read-out: IC50 (μmol/L) / Acetoacetate
Sequence (Q8BN82 whole entry): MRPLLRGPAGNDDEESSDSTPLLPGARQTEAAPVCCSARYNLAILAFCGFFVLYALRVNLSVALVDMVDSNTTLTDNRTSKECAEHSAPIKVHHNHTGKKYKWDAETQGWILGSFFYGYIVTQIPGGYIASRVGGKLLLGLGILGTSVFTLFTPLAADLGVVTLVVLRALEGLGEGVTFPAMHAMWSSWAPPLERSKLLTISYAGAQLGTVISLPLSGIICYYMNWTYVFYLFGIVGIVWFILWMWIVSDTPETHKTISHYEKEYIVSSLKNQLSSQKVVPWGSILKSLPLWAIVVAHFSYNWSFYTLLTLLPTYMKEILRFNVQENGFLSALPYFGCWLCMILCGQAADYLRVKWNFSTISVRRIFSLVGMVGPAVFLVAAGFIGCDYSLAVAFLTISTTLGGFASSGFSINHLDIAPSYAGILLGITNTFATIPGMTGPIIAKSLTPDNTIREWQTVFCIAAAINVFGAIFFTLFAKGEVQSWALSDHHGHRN
parameter_measured: IC50 (µmol/L)
# unit: µmol/L | format: bare number

Prompt: Identify IC50 associated with the compound CC(=O)CC(=O)O [acetoacetate]
Completion: 130

---

molecular target: VNUT (vesicular nucleotide transporter, SLC17A9 protein) (Homo sapiens); construct: recombinant, expressed in insect cells or E. coli, octylglucoside-solubilized, Ni-NTA purified, reconstituted in asolectin liposomes; assay: inhibition of valinomycin-evoked radiolabelled substrate uptake into proteoliposomes; format: biochemical; settings: read-out: IC50 (μmol/L) / Glyoxylate
Sequence (Q9BYT1 whole entry): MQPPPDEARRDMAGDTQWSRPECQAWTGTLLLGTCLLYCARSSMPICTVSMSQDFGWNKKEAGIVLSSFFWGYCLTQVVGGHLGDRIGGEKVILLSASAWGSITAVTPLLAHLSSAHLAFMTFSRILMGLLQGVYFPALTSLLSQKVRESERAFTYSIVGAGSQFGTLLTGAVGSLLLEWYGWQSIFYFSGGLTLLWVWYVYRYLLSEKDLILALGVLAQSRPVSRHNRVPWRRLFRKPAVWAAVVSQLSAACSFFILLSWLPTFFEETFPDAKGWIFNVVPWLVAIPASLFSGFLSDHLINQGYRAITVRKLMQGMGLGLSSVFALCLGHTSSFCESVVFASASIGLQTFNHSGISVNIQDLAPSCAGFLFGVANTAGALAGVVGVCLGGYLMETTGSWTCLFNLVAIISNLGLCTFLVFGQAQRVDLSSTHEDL
parameter_measured: IC50 (µmol/L)
# unit: µmol/L | format: bare number

Prompt: Provide VNUT (vesicular nucleotide transporter, SLC17A9 protein) (Homo sapiens) IC50 reading for O=CC(=O)O [glyoxylate] .
Completion: 4.1
